System: MKL-2
Test: qHTS assay to identify novel small-molecules to repurpose for Merkel cell carcinoma treatment (AID 1296009); also: nearly all actives have a fitted effect of over 60% in size
Details: MCC and control cell lines, CellTiter-Glo viability, 72 h; series mostly up to 46 µM
From the text: MCC is a rare and aggressive neuroendocrine skin cancer with limited treatment options. Approximately 80% of MCCs have the Merkel cell polyomavirus (MCPyV) DNA integrated into the host genome (virus-positive: VP-MCC) and viral oncogenes drive oncogenesis. The remaining MCCs are virus-negative (VN-MCC) and are caused by UV mutagenesis. […] Using cell viability as a readout (CellTiter-Glo assay) we found both overlapping and distinct drugs that can be repurposed for the treatment of VP-MCC and VN-MCC. […]
Inconclusive results are not listed. Active and inactive are the calls of the source. Calls follow the shape of the dose curve; as a rule, active = well fitted inhibition curve with a large enough effect; inconclusive = small, poorly fitted or top-dose-only effect; inactive = flat fitted curve, though single readings scatter.
Choose the fitting class; nothing outside active, inactive is accepted.

Reference set (10 entries):
CC(C)NCC(O)c1ccc2ccccc2c1 (stereo not given) = inactive
O=C(N/N=C/c1ccc([N+](=O)[O-])o1)c1ccc(O)cc1 = active
CN1CCC(OC(c2ccccc2)c2ccccc2)CC1 = inactive
CCN(CC)CCOc1ccccc1C(=O)CCc1ccccc1 = inactive
N[C@H](C(=O)O)[C@@H](O)c1ccc(O)c(O)c1 = inactive
CCNC(=O)/C=C/c1cccc(Br)c1 = inactive
CC(C)(Cc1c[nH]c2ccccc12)NCC(O)COc1ccccc1C#N (stereo not given) = inactive
CC(C)Cn1cnc2c1c(=O)n(C)c(=O)n2C = inactive
Cc1ccccc1OCC(O)CO (stereo not given) = inactive
NC(N)=NN=C(/C=C/c1ccc([N+](=O)[O-])o1)/C=C/c1ccc([N+](=O)[O-])o1 = active

# input For Cc1cc(NS(=O)(=O)c2ccc(N)cc2)nc(C)n1 , what call appears in the results of this test?
# output inactive

# input For CC(C)Cc1ccc(CC(=O)O)cc1 , what call appears in the results of this test?
# output inactive

# input Hi, sorry to bother you, what did the test record for OC[C@H]1O[C@@H]2O[C@H]3[C@H](O)[C@@H](O)[C@@H](O[C@H]4[C@H](O)[C@@H](O)[C@@H](O[C@H]5[C@H](O)[C@@H](O)[C@@H](O[C@H]6[C@H](O)[C@@H](O)[C@@H](O[C@H]7[C@H](O)[C@@H](O)[C@@H](O[C@H]8[C@H](O)[C@@H](O)[C@@H](O[C@H]1[C@H](O)[C@H]2O)O[C@@H]8CO)O[C@@H]7CO)O[C@@H]6CO)O[C@@H]5CO)O[C@@H]4CO)O[C@@H]3CO ?
# output inactive

# input Hi team, can someone confirm the assay call for O=C(NC1CCN(CCc2c[nH]c3ccccc23)CC1)c1ccccc1 ?
# output inactive

# input For CCCCCCCCOc1ccc(C(=O)c2ccccc2)c(O)c1 , which call appears in the assay record?
# output inactive

# input Please indicate how the test categorized CCOc1ccc(NC(C)=O)cc1 .
# output inactive

---

Tested on: Zika virus NS2B-NS3 protease
Assay: Primary screen GU AMC qHTS for Zika virus inhibitors (AID 1347154); also: nearly all actives have a fitted effect of over 70% in size
Details: Zika NS2B-NS3 unlinked protease, AMC fluorogenic substrate; series mostly up to 54.1 µM
Inconclusive results are not listed. Calls of active or inactive are those of the source. Calls come from the whole dose curve; as a rule, active = well fitted inhibition curve with a large enough effect; inconclusive = small, poorly fitted or top-dose-only effect; inactive = flat fitted curve, though single readings scatter.
Outcome (select one): active, inactive

Would you please look over these solved cases?
CCC(C(=O)OCCOCCN(CC)CC)c1ccccc1 (stereo not drawn) = inactive
Cc1c[nH]c2ccccc12 = inactive
CCOc1ccccc1OCCN[C@H](C)Cc1ccc(OC)c(S(N)(=O)=O)c1 = inactive
N[C@H](C(=O)O)[C@@H](O)c1ccc(O)c(O)c1 = active
CCOc1ccc(NC(C)=O)cc1 = inactive
Nc1ccc(C(=O)NCC(=O)O)cc1 = inactive
CCCN(CCC)S(=O)(=O)c1ccc(C(=O)O)cc1 = inactive
C[C@@H](O)[C@H]1C(=O)N2C(C(=O)O)=C(S[C@@H]3CN[C@H](CNS(N)(=O)=O)C3)[C@H](C)[C@H]12 = inactive
CCc1nn(CCCN2CCN(c3cccc(Cl)c3)CC2)c(=O)n1CCOc1ccccc1 = inactive
CCOC(=O)[C@H](CCc1ccccc1)N[C@@H](C)C(=O)N1[C@H](C(=O)O)C[C@@H]2CCC[C@@H]21 = inactive

# input Returns: the outcome recorded for C#C[C@]1(O)CC[C@H]2[C@@H]3CCC4=Cc5oncc5C[C@]4(C)[C@H]3CC[C@@]21C in this assay.
# output inactive

# input Answer briefly: the call reported for Clc1cccc(C(c2ccc3nc[nH]c3c2)n2ccnc2)c1 (stereo not drawn) in this assay.
# output inactive

# input Answer briefly: the call reported for CCCCCCCCCCCCCC(=O)OC(C)C in this assay.
# output inactive

# input # lookup: test call for C=CCN1CCc2nc(N)sc2CC1
# output inactive

# input Entry O=C(CCN1CCN2CCCC2C1)N1c2ccccc2Sc2ccc(Cl)cc21 (stereo not drawn) : call = ?
# output inactive

# input Would you mind telling me which call this test gave C=C[C@H]1CN2CC[C@H]1C[C@@H]2[C@@H](O)c1ccnc2ccc(OC)cc12 ?
# output inactive

# input Hi team, can someone confirm the assay call for CC(C)(C)CC(C)(C)c1ccc(O)c(-n2nc3ccccc3n2)c1 ?
# output inactive
